molecular target: human NRP1 (human, UniProt O14786); assay: competition phage ELISA
reportedEndpoint: pIC50
Give bare numbers, as −log10 of the molar value.

YW107.4.17 (antibody, V domains shown) VH: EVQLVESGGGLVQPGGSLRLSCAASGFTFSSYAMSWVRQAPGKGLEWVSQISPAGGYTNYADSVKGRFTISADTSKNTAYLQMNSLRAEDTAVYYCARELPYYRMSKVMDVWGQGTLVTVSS VL: DIQMTQSPSSLSASVGDRVTITCRASQYTHSYLAWYQQKPGKAPKLLIYGASSRASGVPSRFSGSGSGTDFTLTISSLQPEDFATYYCQQYYSSPVTFGQGTKVEIKR ... 9.62

Turning now to a further binder:
Prompt: # get_value(readout='pIC50', item= YW107.4.76a (antibody, V domains shown) VH: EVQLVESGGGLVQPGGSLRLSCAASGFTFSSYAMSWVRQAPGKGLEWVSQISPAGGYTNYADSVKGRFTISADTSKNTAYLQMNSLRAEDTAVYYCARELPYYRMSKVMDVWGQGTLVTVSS VL: DIQMTQSPSSLSASVGDRVTITCRASQYISSYLAWYQQKPGKAPKLLIYGASRRASGVPSRFSGSGSGTDFTLTISSLQPEDFATYYCQQYLRSPHTFGQGTKVEIKR )
Response: 9.64
